Value source: PubChem BioAssay (NCI)

System: UO-31 renal
assay info: NCI tumour cell line growth inhibition, 48 h
The reader will find reported TGI values listed item by item below.

Guide cases for TGI, answers given:
{"compound": "CC1=CC(=O)C(C(C)C)=CC1=Nc1cc(Br)c(O)c(Br)c1", "assayed system": "UO-31 renal", "TGI": "33.1 µM"}
{"compound": "C(=N\\Nc1ccc(-c2nc3ccccc3[nH]2)cc1)/c1c(-c2ccc(Cc3ccccc3)cc2)[nH]c2ccccc12", "assayed system": "UO-31 renal", "TGI": "49.2 µM"}
{"compound": "O=C(O)C1CC2(C1)CC(C(=O)O)C2 (stereo unspecified)", "assayed system": "UO-31 renal", "TGI": "> 100 µM"}
{"compound": "CN=C(NC(=S)N(C)C)N(C)C", "assayed system": "UO-31 renal", "TGI": "> 100 µM"}
{"compound": "COc1cc(C2SC(C)C(=O)N2c2ccc(-c3csc(NS(=O)(=O)c4ccc(Cl)c(OC)c4)n3)cc2)ccc1O (stereo unspecified)", "assayed system": "UO-31 renal", "TGI": "> 100 µM"}

Continue with the compound presented below.
stdin: Field request: TGI | item: O=C1c2ccccc2C(=O)c2sc(Nc3ccccc3C(F)(F)F)nc21
stdout: 25.2 µM

* * *

System: SNB-19 CNS
assay info: NCI tumour cell line growth inhibition, 48 h
Reported TGI values for a set of compounds

{"compound": "CC(=O)N1N=C(c2ccc(Nc3ccnc4cc(Cl)ccc34)cc2)CC1c1ccc(Cl)cc1 (centres undefined)", "value measured": "> 100 µM"}
{"compound": "CCOC(=O)c1c(-c2ccc(Cl)cc2)c(C#N)c(=S)n(C2OC(COC(C)=O)C(OC(C)=O)C(OC(C)=O)C2OC(C)=O)c1-c1ccccc1 (centres undefined)", "value measured": "> 100 µM"}
{"compound": "N#Cc1c(Br)n(C2OC(CO)C(O)C2O)c2ncnc(N)c12 (centres undefined)", "value measured": "> 75.9 µM"}
{"compound": "Cc1ccc(NC(=O)C2C(=O)N(c3ccc(C)c(C)c3)C(=O)/C2=N\\NC(N)=O)cc1C (centres undefined)", "value measured": "> 100 µM"}

stdin: Given the compound COc1ccc(/C=c2\sc3n(c2=O)C2C(NN=3)N(C)C(=O)N2C)cc1 (centres undefined) , what is its reported TGI?
stdout: > 100 µM

stdin: Reported TGI for CN(Cc1cccc(F)c1)c1ccc(CO)c(Cl)c1 : what is it?
stdout: > 100 µM

stdin: Suppose we examine the compound Cc1c(CCO)c(=O)n2c([nH]c3ccccc32)c1C#N ; what TGI value has been reported?
stdout: 91.8 µM

stdin: Entry under review: CCC(c1ccc(OC)cc1)C(CC)c1ccc(O)c(CN2CCN(C)CC2)c1 (centres undefined) . Reported TGI?
stdout: 18.5 µM

stdin: Which TGI value belongs to CCOC(=O)c1c(Br)c(-c2ccc(OC)cc2)c(Br)n1C ?
stdout: 97.7 µM

stdin: TGI lookup needed for CCOC(=O)c1sc2nc(SC)nc3c2c1NCN3c1ccc(F)c(F)c1 , thanks.
stdout: > 83.2 µM

stdin: What measured TGI goes with O=C1NC(=O)C(=Nc2cccc3c(=O)[nH][nH]c(=O)c23)C(c2nc3ccccc3s2)C1=O (centres undefined) ?
stdout: > 100 µM

stdin: Consider the compound shown here: CC1=NN(C(=O)CC(=O)Nc2ccccc2Cl)C(=O)C1N=Nc1ccc(S(=O)(=O)c2ccc(N=NC3C(=O)N(C(=O)CC(=O)Nc4ccccc4Cl)N=C3C)cc2)cc1 (centres undefined) What is its recorded TGI?
stdout: > 100 µM

stdin: Any idea what TGI was measured for O=C1C=C2SC3C[C@@]24CC1[N+]1=c2c4c(c(O)c4c2=C(C=N4)CC1)N3 ?
stdout: 9.66 µM

stdin: What does the record list as TGI for CC(=O)OC1=CC2=CC[C@H]3[C@@H]4CCC(=O)[C@@]4(C)CC(=O)[C@]3(S)[C@@]2(C)CC1 ?
stdout: > 100 µM

stdin: // lookup TGI for O=S(OC12CC3CC(CC(C3)C1)C2)c1cc(Cl)cc(Cl)c1OCc1ccccc1 (centres undefined)
stdout: > 100 µM

stdin: // query TGI value for entry O=C(CC1(O)C(=O)Nc2ccc(Br)cc21)c1ccc(Cl)cc1Cl (centres undefined)
stdout: > 100 µM

stdin: Any idea what TGI was measured for O=c1cc(NNc2cccc(F)c2)[nH]c(=O)[nH]1 ?
stdout: > 100 µM

stdin: Look up TGI: COc1cc(C2SC(C)C(=O)N2c2ccc(-c3csc(NS(=O)(=O)c4ccc(Cl)c(OC)c4)n3)cc2)ccc1O (centres undefined)
stdout: > 100 µM

stdin: // TGI lookup, key: CCCC(O)c1cn(C(NC(=O)c2ccccc2)P(=O)(OCC)OCC)nn1 (centres undefined)
stdout: > 100 µM
